test: yeast display, Sf9 membrane polyspecificity reagent, FACS + sequencing; frameworks hold sequencing errors

sequence text	polyreactivity (PSR sort gate)
QVQLVESGGGLVQAGGSLRLSCAASGSIFEVYAMGWYRQAPVKERELVAAIDYSDGTTYYADSVKGRFTISRDNAKNTVYFQMNSLKPEDTAVYYCAADFPGQHYDYWGQGTQVTVSS	low polyreactivity
QVQLVESGGGLVQAGGSLRLSCAASGRTYRRNAMGWYRQAPGKERELVAAIRSDGSTYYADSVKGRFTISRDNAKNTVYLQMNRLKPEDTAVYYCNAVYVSSFTCHDYWGQGTQVTVSS	low polyreactivity
QVQLQESGGGLVQAGGDLRLSCAASGNIFLDYIMGWYRQAPGKEREFVAGIDRGANTNYADSVKGRFTISRDNAKNTLYLQMNSLKPEDTAVYYCAVHTAIVPDFIYWGQGTEVTVSS	low polyreactivity
QVQLVESGGGLVQAGGSLRLSCAASGLILGYYAMGWYRQAPGKERELVAAISSTGSTNYADSVKGRFTISRDNAKNTVYLQMNSLKPEDTAVYYCAAVPPRKDYQHMDYWGQGTQVTVSS	low polyreactivity
